testDetails: yeast display, Sf9 membrane polyspecificity reagent, FACS + sequencing; frameworks hold sequencing errors
measuredQuantity: polyreactivity (PSR sort gate)

Here is how some sequences turned out for polyreactivity (PSR sort gate).
constructSequence	measuredQuantity	result
QVQLVESGGGLVQAGGSLRLSCAASGRISGGYAMGWYRQAPGKERELVAVISSGGRTYYADSVKGRFTISRDNAKNTVDLHMNSLKPEVTGVYYCNAYTWGIVDNYDYWGQGTQVTVSS	polyreactivity (PSR sort gate)	low polyreactivity
QVQLVESGGGLVQPGGSLRLSCAASGRISSKYAMGWYRQAPGKERELVATISSRGGSTYYADSVKGRFTISRDNAKNTVYLQMNSLKPEDTAVYYCNRPTYLHSTSYSYDYWGQGTQVTVSS	polyreactivity (PSR sort gate)	low polyreactivity
QVQLVESGGGLVQAGGSLRLSCAASGSIFLYNAMGWYRQAPGKERELVASISSGGITDYADSVKGRFTISRDNAKNTVYLQMNSLKPEDTAVYYCAATYSVYLDYAGGGPLYNHWGQGTQVTVSS	polyreactivity (PSR sort gate)	low polyreactivity
QVQLVESGGGVVQAGGSLRLSCAASGITYGRNTMGWYIHAPGKERELVAAIDSGGNTYADSVKGRFTISRDNAKNTVYLQMNSLKPEDTAVYYGAATFIQVVVNVQLYDYDYWGQGTQVNVSS	polyreactivity (PSR sort gate)	low polyreactivity
QVQLVESGRGIVQAGGSLRLSCAASGLTFSSNAMVWYRQAPGKEREMVAVITNGGSTNYADSVKGRFTISRDNAKNTVYLQMNSLKPEDTAVYYCAKDGGPAQDIGMDYWGQGTQVTVSS	polyreactivity (PSR sort gate)	low polyreactivity
QVQLVESGGGLVQAGGSLRLSCAASGSTDRYYVMGWYRQAPGKERDLVAGISYRGGTTYYADSVKGRFTISRDNAKNTVYLQMNRLKPEDTAVYYCNAETAAAQASYDRLYVLLDYWGQGTQVTVSS	polyreactivity (PSR sort gate)	low polyreactivity

// query # query: polyreactivity (PSR sort gate) of entry "QVQLVESGGGLVQAGGSLRLSCAASGRTFHINAMGWYRQAPGKERELVAGINSGGSTNYADSVKGRFTISRDNAKNTVYLQMNSLKPEDTAVYYCNAVVKLKYLYYYVEHYYWGQGTQVTVSS"
// result low polyreactivity

// query Subsequent entry: "QVQLVESGGGLVQAGGSLRLSCAASGSILEVYAMGWYRQAPGKERELVAAISDGDSTYYADSVKGRFTISRDNAKNTVYLQMNSLKPEDTAVYYCAAEFVGTLWWYDYWGQGTQVTVSS"
// result low polyreactivity

// query Now the same for "QVQLVESGGGLVQAGGSLRLSCAASGSTFGRYAMGWYRQAPGKERELVAAISASGGSTYYADSVKGRFTISRDNAKNTVYLLMNSLKPEDTAVYYSAALIDVITGQYDYWGQGTQVTVSS"
// result high polyreactivity
